Assay: Inhibition of Cdk5
observable: pIC50
// pIC50 here means minus log10 of the molar concentration (mol/L)

Consider the compound O=C1Nc2ccccc2/C1=C\c1c(Cl)[nH]c2ccccc12 and give its measured pIC50.
4.60

----------
Target: UniProtKB P12931
Sequence (P12931 whole entry, looked up): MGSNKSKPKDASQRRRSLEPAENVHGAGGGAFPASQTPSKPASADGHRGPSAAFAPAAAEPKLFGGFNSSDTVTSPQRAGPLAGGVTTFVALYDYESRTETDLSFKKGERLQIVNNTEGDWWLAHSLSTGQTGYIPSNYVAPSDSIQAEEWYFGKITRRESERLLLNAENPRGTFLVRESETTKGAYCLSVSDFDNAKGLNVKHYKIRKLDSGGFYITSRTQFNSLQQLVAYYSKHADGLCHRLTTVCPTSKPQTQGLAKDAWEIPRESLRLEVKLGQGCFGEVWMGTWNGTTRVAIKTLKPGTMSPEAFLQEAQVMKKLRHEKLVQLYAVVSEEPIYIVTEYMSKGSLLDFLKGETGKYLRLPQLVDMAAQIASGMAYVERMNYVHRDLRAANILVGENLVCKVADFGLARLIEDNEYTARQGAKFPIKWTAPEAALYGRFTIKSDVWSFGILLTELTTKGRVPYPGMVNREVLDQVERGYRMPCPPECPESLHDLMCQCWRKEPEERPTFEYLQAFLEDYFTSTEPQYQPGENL
observable: pIC50
// pIC50 here means minus log10 of the molar concentration (mol/L)

Kindly state the measured pIC50 obtained for CCN(CC)CCCCNc1ncc2cc(-c3cc(OC)cc(OC)c3)c(NC(=O)NC(C)(C)C)nc2n1 with UniProtKB P12931.
4.70
